From: PubChem BioAssay AID330

Test system: P388 leukemia ip, CD2F1 mice, survival T/C
test.method.notes: NCI In Vivo Anticancer Drug Screen. Data for tumor model P388 Leukemia (intraperitoneal) in CD2F1 (CDF1) mice
condition.set: endpoint: median survival time; dose: 50.0 mg/kg/injection; schedule: Q01DX009 (ip); vehicle: saline; higher = longer survival
Inconclusive results and toxic doses are left out.
assay.endpoint: T/C

# annotated cases, reported T/C shown
[CH3][Ge]([CH3])([Cl])[c]1cc[c]([Ge]([CH3])([CH3])[Cl])cc1; 110 % of control
CC(=O)c1ccc2c(c1)N(CCCN1CCN(CCO)CC1)c1ccccc1S2; 109 % of control
[Cl][Cr]([Cl])[Cl].[NH-]CC[N-]CC[NH-]; 97 % of control
CC1COS(=O)(=O)C1 (configuration not stated); 101 % of control
CCSSC12CCCN1C(=O)C(C)N(C)C2=O (configuration not stated); 105 % of control

Your task in this section: give T/C for each listed record.
1. CN(C)CCN(C)C(=N)N
2. CCOC(=O)C(C)NO (configuration not stated)
3. CC(=O)C(C)P(=O)(O)O (configuration not stated)
4. Cc1cc(=O)[nH]c(/N=C(/N)N(C)C)n1
5. CN1CCC(/C=C/c2cccc3ccccc23)CN1 (configuration not stated) (tested in a mixture with another compound)
6. CC(=O)NC(Cc1ccccc1F)C(=O)O (configuration not stated)
7. CCOC(=O)CSc1ccccc1
8. N[N+]1(CCS(N)(=O)=O)CCOCC1

stdout:
1. 104 % of control
2. 97 % of control
3. 99 % of control
4. 101 % of control
5. 108 % of control
6. 94 % of control
7. 100 % of control
8. 110 % of control

# batch: return T/C for each of the 7 molecules below
1. CNC(=O)CC(N)C(=O)O (configuration not stated)
2. CC(C)COCCCN
3. S=C(Nc1ccc(N=Nc2ccccc2)cc1)SCc1ccc(Cl)cc1
4. O=Cc1coc2ccccc2c1=O
5. Fc1ccccc1C(Nc1ncccn1)Nc1ncccn1
6. CCOc1cc2c(NCCCN(CCO)CCO)ncnc2c(OCC)c1OCC
7. CCCCCCCCCCCCCCCC[N+](C)(C)CCN

stdout:
101 % of control
100 % of control
97 % of control
110 % of control
94 % of control
101 % of control
106 % of control

Look at each molecule and report its T/C.
1. Cc1cc2nc(N)sc2cc1C
2. C[Si](C)(C)c1cc[c]([Sn]([CH3])([CH3])[CH3])cc1
3. Clc1c2ccccc2cc2cccnc12
4. CC1=NN(c2ccccc2)C(=O)C1N=Nc1cc(Cl)cc(S(=O)(=O)O)c1O (configuration not stated)
5. Cc1nc(=O)oc(NC(C)C)c1Cl
6. CCCCCCC(/C=C/c1ccc(Cl)c(Cl)c1)=N\NC(N)=O

stdout:
1: 102 % of control; 2: 105 % of control; 3: 101 % of control; 4: 96 % of control; 5: 110 % of control; 6: 104 % of control

For every record below, what is its T/C?
1. NC=NCC(=O)O
2. CC(=O)/C=C/N1CCOCC1
3. CC(Nc1cccc(Cl)c1)S(=O)(=O)O (configuration not stated)
4. [NH-]C(C[S-])C(=O)O.[NH-]C(C[S-])C(=O)O.[O]=[Mo]1[O][Mo](=[O])[O]1 (configuration not stated)
5. COc1ccc(/C=C/c2ccnnc2)c(OC)c1OC

stdout:
["96 % of control", "119 % of control", "100 % of control", "99 % of control", "102 % of control"]

Could you tell me T/C for each of these molecules? They are listed below.
1. O=[N+]([O-])c1cc2c(cc1I)C1C(C3C2C2(Cl)C(Cl)=C(Cl)C3(Cl)C2(Cl)Cl)C2(Cl)C(Cl)=C(Cl)C1(Cl)C2(Cl)Cl (configuration not stated)
2. OC1COCCC(O)(CNCc2ccccc2)C1O (configuration not stated)
3. CC(=O)c1ccc2c(=O)c(C(=O)O)c[nH]c2c1
4. CCCCCCCCCCCC#CC(=O)OC
5. CC1(C)OC2(CC1C1(C)C=CC(=O)O1)CC1(O)C(CCC34CC13C(=O)OC4c1ccoc1)O2 (configuration not stated)
6. N#CC1(NO)CCCC1
7. C(CCCSC1=NCCN1)CCSC1=NCCN1

stdout:
108 % of control
98 % of control
108 % of control
105 % of control
97 % of control
94 % of control
103 % of control

Report T/C for each item below.
1. COc1nc(SC)c(C#N)c(=O)[nH]1
2. CCOC(=O)NCCCCl

stdout:
["107 % of control", "99 % of control"]

Can you give me T/C for all of these, one by one?
1. O=C(Nc1ccc(NC(=O)c2ccc(C3=NCCCN3)cc2)cc1)c1ccc(C2=NCCCN2)cc1
2. CCOC(=O)C(CNc1ccc(OCc2ccccc2)cc1)NC(=O)c1ccccc1 (configuration not stated)
3. CCN(CCCO)CCCO
4. Cc1ccc(-n2nc(C)cc2C)nn1
5. OCC1OC2OC3C(CO)OC(OC4C(CO)OC(OC5C(CO)OC(OC6C(CO)OC(OC7C(CO)OC(OC1C(O)C2O)C(O)C7O)C(O)C6O)C(O)C5O)C(O)C4O)C(O)C3O (configuration not stated)
6. Nc1c(CC(=O)O)cccc1C(=O)c1ccccc1

stdout:
163 % of control
96 % of control
102 % of control
99 % of control
94 % of control
87 % of control

Could you tell me T/C for each of these molecules? They are listed below.
1. CCCCCCCCCCCCCC[N+]1([O-])CCCCCC1
2. O=C(O)c1c[nH]c2cc(F)ccc2c1=O

stdout:
1. 90 % of control
2. 103 % of control
